Data origin, for the record: PubChem BioAssay (NCATS)

Tested on: Tov112D
ASSAY: Primary qHTS to identify gynecologic anti-cancer compounds using libraries of approved drugs and bioactive compounds (AID 1345084); also: nearly all actives have a fitted effect of over 55% in size
STUDY CONDITIONS: Gynecologic cancer cell panel viability, ATPlite luminescence, 48 h; series mostly up to 57.5 µM
Inconclusive results are not listed. The source made the active and inactive calls. Calls follow the shape of the dose curve; as a rule, active = well fitted cell-killing curve with a large enough effect; inconclusive = small, poorly fitted or top-dose-only effect, or effect the other way; inactive = flat fitted curve, though single readings scatter.
The reply should name one outcome from label 1 = active, label 0 = inactive

Reference set, count: 5
>  <COMPOUND>
CCN1CCCC1=O

>  <LABEL CLASS>
label 0

$$$$
>  <COMPOUND>
C=C1C[C@H]2[C@@H]3C=C(C)C4=CC(=O)CC[C@]4(C)[C@H]3CC[C@]2(C)[C@@]1(OC(C)=O)C(C)=O

>  <LABEL CLASS>
label 0

$$$$
>  <COMPOUND>
Nc1ccc(C(=O)Nc2ccccc2N)cc1

>  <LABEL CLASS>
label 0

$$$$
>  <COMPOUND>
CC(C)N=C(N)/N=C(\N)Nc1ccc(Cl)cc1

>  <LABEL CLASS>
label 0

$$$$
>  <COMPOUND>
NC(=O)C(=O)N/N=C/c1ccc([N+](=O)[O-])o1

>  <LABEL CLASS>
label 0

$$$$

Ask: Recorded test outcome, item CC(=O)OCC(=O)[C@@]1(OC(C)=O)[C@@H](C)C[C@H]2[C@@H]3C[C@H](F)C4=CC(=O)C=C[C@]4(C)[C@@]3(F)[C@@H](O)C[C@@]21C
Result: label 0

Ask: Recorded test outcome, item CC(C)(C)NC(=O)[C@@H]1CN(Cc2cccnc2)CCN1C[C@@H](O)C[C@@H](Cc1ccccc1)C(=O)N[C@H]1c2ccccc2C[C@H]1O
Result: label 0

Ask: Recorded test outcome, item CC(O)(P(=O)(O)O)P(=O)(O)O
Result: label 0

Ask: Recorded test outcome, item N[C@@H](CCC(=O)N[C@@H](CS)C(=O)NCC(=O)O)C(=O)O
Result: label 0

Ask: Recorded test outcome, item CC(=O)[C@H]1CC[C@H]2[C@@H]3C[C@H](C)C4=CC(=O)CC[C@]4(C)[C@H]3[C@@H](O)C[C@]12C
Result: label 0

Ask: Recorded test outcome, item CCCCC(=O)O[C@]1(C(=O)CO)CC[C@H]2[C@@H]3CCC4=CC(=O)CC[C@]4(C)[C@H]3[C@@H](O)C[C@@]21C
Result: label 0

----------
STUDY TARGET: Phospholipid hydroperoxide glutathione peroxidase GPX4 (Homo sapiens) (UniProt P36969)
Sequence (P36969 whole entry, looked up): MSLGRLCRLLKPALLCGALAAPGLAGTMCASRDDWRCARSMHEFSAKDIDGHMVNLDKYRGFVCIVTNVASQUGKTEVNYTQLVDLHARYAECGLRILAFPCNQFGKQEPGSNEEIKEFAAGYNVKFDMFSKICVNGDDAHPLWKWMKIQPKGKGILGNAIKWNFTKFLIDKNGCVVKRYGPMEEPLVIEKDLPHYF
ASSAY: Primary qHTS Assay for Inhibitors of Recombinant Selenoprotein Glutathione Peroxidase 4 (GPX4) (AID 1845192); also: nearly all actives have a fitted effect of over 65% in size
STUDY CONDITIONS: recombinant GPX4, GR-coupled NADPH fluorescence, 15 min; series mostly up to 50 µM
Procedure: Assay Provider: Elias S.J. Arner MD PhD. Department of Medical Biochemistry and Biophysics Karolinska Institutet, Solna, Stockholm, Sweden […] 6; Detection; Fluorescence; ViewLux microplate reader, excitation 340 nm and emission 450 nm. […] 8; Detection; Fluorescence; ViewLux microplate reader, excitation 340 nm and emission 450 nm. […] 6. Initial fluorescence readout (t=0) at 340/450 nm was measured using a ViewLux multimodal detector (PerkinElmer, Waltham, MA). […]
Results filed as inconclusive are left out. Active and inactive are the calls of the source. The call rests on the fitted dose curve; in most records, active means well fitted inhibition curve with a large enough effect; inconclusive means small, poorly fitted or top-dose-only effect; inactive means flat fitted curve, though single readings scatter.
READOUT LABEL: outcome

Recorded outcome, per entry:
>  <COMPOUND>
CCN(CCCCOC(=O)c1ccc(OC)c(OC)c1)C(C)Cc1ccc(OC)cc1 (stereo not given)

>  <outcome>
inactive

$$$$
>  <COMPOUND>
CC(=O)OCC(=O)[C@@]12OC(C)(C)O[C@@H]1C[C@H]1[C@@H]3C[C@H](F)C4=CC(=O)C=C[C@]4(C)[C@@]3(F)[C@@H](O)C[C@@]12C

>  <outcome>
inactive

$$$$
>  <COMPOUND>
CC(C)COC(=O)c1ccc(N)cc1

>  <outcome>
inactive

$$$$
>  <COMPOUND>
CC1(C)O[C@@H]2C[C@H]3[C@@H]4CCC5=CC(=O)CC[C@]5(C)[C@@]4(F)[C@@H](O)C[C@]3(C)[C@]2(C(=O)CCl)O1

>  <outcome>
inactive

$$$$

Parameter requested: outcome. Apply to each item below.
1. C=C1C[C@H]2[C@@H]3C=C(C)C4=CC(=O)CC[C@]4(C)[C@H]3CC[C@]2(C)[C@@]1(OC(C)=O)C(C)=O
2. COC(=O)CCc1ccc(OCC(O)CNC(C)C)cc1 (stereo not given)
3. CN1CCCC(CC2c3ccccc3Sc3ccccc32)C1 (stereo not given)
4. CCN1CCCC1=O
5. C=C(CC)C(=O)c1ccc(OCC(=O)O)c(Cl)c1Cl

Result:
1. inactive
2. inactive
3. inactive
4. inactive
5. inactive

Per the record, CNCCC(Oc1ccccc1C)c1ccccc1 (stereo not given) has outcome of inactive

----------
System: SKOV3
ASSAY: Primary qHTS to identify gynecologic anti-cancer compounds using libraries of approved drugs and bioactive compounds (AID 1345084); also: nearly all actives have a fitted effect of over 55% in size
STUDY CONDITIONS: Gynecologic cancer cell panel viability, ATPlite luminescence, 48 h; series mostly up to 57.5 µM
Results filed as inconclusive are left out. Activity calls are given as the source filed them. Calls follow the shape of the dose curve; as a rule, active = well fitted cell-killing curve with a large enough effect; inconclusive = small, poorly fitted or top-dose-only effect, or effect the other way; inactive = flat fitted curve, though single readings scatter.
The reply should name one outcome from Yes for active, No for inactive

Reference set, count: 5
>  <MOLECULE>
O=C(OCC(O)CO)c1ccccc1Nc1ccnc2cc(Cl)ccc12 (stereo not given)

>  <LABEL CLASS>
No

$$$$
>  <MOLECULE>
Oc1cc(O)c2c(c1)O[C@H](c1ccc(O)c(O)c1)[C@H](O)C2

>  <LABEL CLASS>
No

$$$$
>  <MOLECULE>
C[n+]1c2cc(N)ccc2cc2ccc(N)cc21 (tested in a mixture with another compound)

>  <LABEL CLASS>
Yes

$$$$
>  <MOLECULE>
C=C1C[C@H]2[C@@H]3C=C(C)C4=CC(=O)CC[C@]4(C)[C@H]3CC[C@]2(C)[C@@]1(OC(C)=O)C(C)=O

>  <LABEL CLASS>
No

$$$$
>  <MOLECULE>
CCCCC(=O)O[C@]1(C(=O)CO)CC[C@H]2[C@@H]3CCC4=CC(=O)CC[C@]4(C)[C@H]3[C@@H](O)C[C@@]21C

>  <LABEL CLASS>
No

$$$$

Ask: Recorded test outcome, item COc1ccc(CN2CCN(C(c3ccc(F)cc3)c3ccc(F)cc3)CC2)c(OC)c1OC
Result: No

Ask: Recorded test outcome, item CCOC(=O)/C=C(C)/C=C/C=C(C)/C=C/c1c(C)cc(OC)c(C)c1C
Result: No

Ask: Recorded test outcome, item O=C(O)CNC(=O)c1ccccc1
Result: No

Ask: Recorded test outcome, item CCOc1ccc(Cc2nccc3cc(OCC)c(OCC)cc23)cc1OCC
Result: Yes

Ask: Recorded test outcome, item CCN(CC)C(=O)/C(C#N)=C/c1cc(O)c(O)c([N+](=O)[O-])c1
Result: No

Ask: Recorded test outcome, item CC(C)N=C(N)/N=C(\N)Nc1ccc(Cl)cc1
Result: Yes

Ask: Recorded test outcome, item CCCC(=O)Nc1ccc(OCC(O)CNC(C)C)c(C(C)=O)c1 (stereo not given)
Result: No

----------
ASSAY: qHTS of pediatric cancer cell lines to identify multiple opportunities for drug repurposing: Confirmatory screen for Rh30 cells (AID 1347126); also: nearly all actives have a fitted effect of over 55% in size
STUDY CONDITIONS: Rh30 rhabdomyosarcoma cell viability; series mostly up to 45.9 µM
Results filed as inconclusive are left out. The source made the active and inactive calls. Calls follow the shape of the dose curve; as a rule, active = well fitted cell-killing curve with a large enough effect; inconclusive = small, poorly fitted or top-dose-only effect, or effect the other way; inactive = no such curve, though single readings can be large or run the other way.
The reply should name one outcome from True = active, False = inactive

Reference set, count: 7
>  <MOLECULE>
C[C@@H]1C[C@H]2[C@@H]3CCC4=CC(=O)C=C[C@]4(C)[C@@]3(F)[C@@H](O)C[C@]2(C)[C@H]1C(=O)CO

>  <LABEL CLASS>
False

$$$$
>  <MOLECULE>
COc1cc(C=C2CCC/C(=C\c3ccc(O)c(OC)c3)C2=O)ccc1O

>  <LABEL CLASS>
True

$$$$
>  <MOLECULE>
CCC(C(=O)OCCN(CC)CC)c1ccccc1 (stereo not drawn)

>  <LABEL CLASS>
False

$$$$
>  <MOLECULE>
C[C@]12C=CC(=O)C=C1[C@@H](F)C[C@@H]1[C@@H]2[C@@H](O)C[C@@]2(C)[C@H]1CC[C@]2(O)C(=O)CO

>  <LABEL CLASS>
False

$$$$
>  <MOLECULE>
CC(=O)OCC(=O)[C@@]1(O)CC[C@H]2[C@@H]3CCC4=CC(=O)C=C[C@]4(C)[C@H]3[C@@H](O)C[C@@]21C

>  <LABEL CLASS>
False

$$$$
>  <MOLECULE>
CCCC(=O)O[C@]1(C(=O)CO)CC[C@H]2[C@@H]3CCC4=CC(=O)CC[C@]4(C)[C@H]3[C@@H](O)C[C@@]21C

>  <LABEL CLASS>
False

$$$$
>  <MOLECULE>
C[C@H]1C[C@H]2[C@@H]3CCC4=CC(=O)C=C[C@]4(C)[C@@]3(Cl)[C@@H](O)C[C@]2(C)[C@@]1(O)C(=O)CO

>  <LABEL CLASS>
False

$$$$

Next:
Ask: Recorded test outcome, item COCc1c(C(C)C)nc(C(C)C)c(/C=C/[C@@H](O)C[C@@H](O)CC(=O)O)c1-c1ccc(F)cc1
Result: True
